Reported Plate 1 (% inhibition) values for a set of compounds
system: His6-AspH315–758 (human aspartate/asparagine-β-hydroxylase, AspH) (Homo sapiens)
Construct: N-Terminally His6-tagged human AspH315–758 (His6-AspH315–758) was produced in E. coli BL21 (DE3) cells; made in house; host or cells: E. coli BL21 (DE3), pET-28a(+) vector
Sequence (Q12797 315-758): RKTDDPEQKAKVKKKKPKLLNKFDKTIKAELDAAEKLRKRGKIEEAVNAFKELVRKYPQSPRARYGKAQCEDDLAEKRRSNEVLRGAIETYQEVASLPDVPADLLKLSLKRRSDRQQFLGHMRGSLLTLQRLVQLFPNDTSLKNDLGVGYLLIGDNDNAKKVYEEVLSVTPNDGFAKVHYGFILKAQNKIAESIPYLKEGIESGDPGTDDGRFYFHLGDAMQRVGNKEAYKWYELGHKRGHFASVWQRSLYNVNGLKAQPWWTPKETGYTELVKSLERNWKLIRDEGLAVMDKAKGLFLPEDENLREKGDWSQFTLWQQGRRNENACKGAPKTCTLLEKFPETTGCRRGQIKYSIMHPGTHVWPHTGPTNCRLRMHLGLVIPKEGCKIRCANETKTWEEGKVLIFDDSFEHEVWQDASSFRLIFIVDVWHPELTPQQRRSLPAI
experiment_description: SPE-MS AspH inhibition assay (LOPAC screen at fixed 20 μM and IC50 dose-response), hydroxylation of cyclic peptide hFX-CP101–119
Type: biochemical
condition_label: LOPAC compound at fixed 20 uM; plate 1, normalised to DMSO and 2,4-PDCA controls
Just the number please, in %, no unit attached.

[[record]]
compound = "[N-]=[N+]=Nc1ccc(C(=O)CSC[C@H](NC(=O)CC[C@H](N)C(=O)O)C(=O)NCC(=O)O)cc1"
system = "His6-AspH315–758 (human aspartate/asparagine-β-hydroxylase, AspH) (Homo sapiens)"
units_label = "%"
recorded_value = -2.24

[[record]]
compound = "NC(CCCP(=O)(O)O)C(=O)O (racemic) [(±)-2-Amino-5-phosphonopentanoic acid]"
system = "His6-AspH315–758 (human aspartate/asparagine-β-hydroxylase, AspH) (Homo sapiens)"
units_label = "%"
recorded_value = -9.50

[[record]]
compound = "CC[C@H]1OC(=O)[C@H](C)[C@@H](O[C@H]2C[C@@](C)(OC)[C@@H](O)[C@H](C)O2)[C@H](C)[C@@H](O[C@@H]2O[C@H](C)C[C@H](N(C)C)[C@H]2O)[C@](C)(O)C[C@@H](C)CN(C)[C@H](C)[C@@H](O)[C@]1(C)O [Azithromycin dihydrate]"
system = "His6-AspH315–758 (human aspartate/asparagine-β-hydroxylase, AspH) (Homo sapiens)"
units_label = "%"
recorded_value = -13.45


Please give measured Plate 1 (% inhibition) of the following entry: "Clc1ccc2c(c1)C(N1CCNCC1)=Nc1ccccc1O2"
-8.96

Supply recorded Plate 1 (% inhibition) for "N[C@@H]1CON=C1O" here.
-7.97

Look up Plate 1 (% inhibition) of NN=C(N)N.NN=C(N)N.O=S(=O)(O)O [Aminoguanidine hemisulfate] and report it.
3.68

Indicate the recorded Plate 1 (% inhibition) value for this compound: Cl.Clc1ccc(Cn2c(CN3CCCC3)nc3ccccc32)cc1 [Clemizole hydrochloride]
-13.99

---

system: His6-AspH315–758 (human aspartate/asparagine-β-hydroxylase, AspH) (Homo sapiens)
Construct: N-Terminally His6-tagged human AspH315–758 (His6-AspH315–758) was produced in E. coli BL21 (DE3) cells; made in house; host or cells: E. coli BL21 (DE3), pET-28a(+) vector
experiment_description: SPE-MS AspH inhibition assay (LOPAC screen at fixed 20 μM and IC50 dose-response), hydroxylation of cyclic peptide hFX-CP101–119
Type: biochemical
condition_label: LOPAC Plate 4, compound at 20 uM
readout_kind: % inhibition (%)
Please give a number only; it is taken to be in %.

[[record]]
compound = "CS(=O)(=O)O.O.O=C(OC1C[C@@H]2CC3C[C@H](C1)N2CC3=O)c1c[nH]c2ccccc12 (stereo partly shown) [Dolasetron mesylate hydrate]"
readout_kind = "% inhibition"
recorded_value = -4.53

[[record]]
compound = "CC(C)(C)c1cc(C(C)(C)C)c2c(c1)C(O)(C(F)(F)F)C(=O)O2 (racemic) [rac BHFF]"
readout_kind = "% inhibition"
recorded_value = 72.02

[[record]]
compound = "Nc1nc2c(ncn2[C@@H]2O[C@H](CO)[C@@H](O)[C@@H]2O)c(=O)[nH]1.O [Ara-G hydrate]"
readout_kind = "% inhibition"
recorded_value = -11.19

[[record]]
compound = "COC1(C2=NCCN2)COc2ccccc2O1.Cl (stereo not shown) [RX 821002 hydrochloride]"
readout_kind = "% inhibition"
recorded_value = -13.78

[[record]]
compound = "Nc1nc(Nc2ccccc2)nc2c1ncn2[C@@H]1O[C@H](CO)[C@@H](O)[C@H]1O [2-Phenylaminoadenosine]"
readout_kind = "% inhibition"
recorded_value = -10.62


Determine from records and report % inhibition for CC(C)NCC(O)c1ccc(NS(C)(=O)=O)cc1.Cl (racemic) [(±)-Sotalol hydrochloride]
-12.79

Give % inhibition for the following compound: O.O.O=C(Nc1ccc2c(c1)CCN(Cc1ncn[nH]1)C2)c1ccccc1-c1ccc(C(F)(F)F)cc1 [CP-346086 dihydrate]
-27.35
